Target: T1, GLP-1 receptor, P32301
T1 chain: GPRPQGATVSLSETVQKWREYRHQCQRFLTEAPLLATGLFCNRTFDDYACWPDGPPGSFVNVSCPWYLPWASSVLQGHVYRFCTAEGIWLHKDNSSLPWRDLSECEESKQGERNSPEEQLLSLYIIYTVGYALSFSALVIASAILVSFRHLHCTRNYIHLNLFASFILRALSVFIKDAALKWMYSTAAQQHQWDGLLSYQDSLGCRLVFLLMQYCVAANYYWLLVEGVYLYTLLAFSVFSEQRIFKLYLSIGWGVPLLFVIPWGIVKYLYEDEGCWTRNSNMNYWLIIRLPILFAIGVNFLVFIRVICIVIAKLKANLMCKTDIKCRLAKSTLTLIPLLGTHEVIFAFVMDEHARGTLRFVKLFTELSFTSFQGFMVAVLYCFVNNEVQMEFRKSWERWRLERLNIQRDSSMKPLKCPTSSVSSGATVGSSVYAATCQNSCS
Assay: GLP-1 binding assay (radioligand displacement), as the filing names it
READOUT KIND: pIC50
// returns pIC50 (minus log10 of molar concentration), number only

Q: // query pIC50 value for entry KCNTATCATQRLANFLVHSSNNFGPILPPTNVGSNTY (modifications not checked) [Pramlintide pegylated with m-dPEG24 amine at the glutamine at position 10]
A: 7.10
